pKi for Plasminogen (Homo sapiens, UniProt P00747), merged from several publications.
pKi: −log10 of the molar value.
Assign class by pKi: not lower than 5 means rule met; lower than 5 means rule not met.

Prompt: Is reported pKi greater than or equal to 5 here: `O=C(CCCCCn1ccnc1)N1CCN(C(=O)O[C@H]2CCC[C@@H](OC(=O)N3CCN(C(=O)CCCCCn4ccnc4)CC3)CCC2)CC1`
Completion: rule not met

Prompt: # check: pKi of `N=C(N)c1cccc(C[C@H](NS(=O)(=O)c2cccc(NC(=O)CCN)c2)C(=O)N2CCN(c3ccc(O)cc3)CC2)c1` is greater than or equal to 5
Completion: rule met

Prompt: hey, is pKi for this one >= 5? `N=C(N)Nc1ccc(CNC(=O)N2CCN(C(=O)O[C@@H]3CO[C@H]4[C@@H]3OC[C@H]4OC(=O)N3CCN(C(=O)NCc4ccc(NC(=N)N)cc4)CC3)CC2)cc1`
Completion: rule not met

Further cases:
Prompt: pKi >= 5 for `CC(C)c1cc(S(=O)(=O)N[C@H](CO)C(=O)NCC(=O)NCc2ccc(C(=N)N)cc2)cc(C(C)C)c1C(C)C` ?
Completion: rule not met

Prompt: Record `O=C(CC[C@H]1CCC[C@@H](NC(=O)[C@H](Cc2ccccc2)NC(=O)OCc2ccccc2)C1=O)N[C@@H](Cc1c[nH]c2ccccc12)C(=O)O` ; criterion: pKi no lower than 5. Met?
Completion: rule not met

Prompt: Has `N=C(N)c1cccc(C[C@H](NS(=O)(=O)c2cccc(NC(=O)CCN)c2)C(=O)N2CCC(Cc3ccccc3)CC2)c1` a recorded pKi greater than or equal to 5?
Completion: rule met
